# Test system: K562
# test protocol: Cytostatic/cytotoxic MTT assay, K562
# Type: cell-based
# condition notes: Homo sapiens, K562; 72 h incubation; read-out: MTT, IC50 K562
# pIC50 values compiled below
Scale note: pIC50 = -log10(concentration in M).

Sample records with pIC50:
compound="C#Cc1cn([C@@H]2O[C@H](CO)[C@@H](O)[C@H]2O)c2ncnc(SC)c12 [Compound 2g]" quantity_name=pIC50 recorded_number=7.52
compound="CSc1ncnc2c1c(-c1ccoc1)cn2[C@@H]1O[C@H](CO)[C@@H](O)[C@H]1O [Compound 2b]" quantity_name=pIC50 recorded_number=7.22
compound="CSc1ncnc2c1c(-c1cc3ccccc3o1)cn2[C@@H]1O[C@H](CO)[C@@H](O)[C@H]1O [Compound 2f]" quantity_name=pIC50 recorded_number=4.76

Note: attention shifts to another entry.
If you can, please state the reported pIC50 value of C#Cc1cn([C@@H]2O[C@H](CO)[C@@H](O)[C@H]2O)c2ncnc(N(C)C)c12 [Compound 4g] .
6.96
